Reported melting point by item:

Could you tell me which melting point is on file for `O=[N+]([O-])c1cccc(/C=C/c2ccc3ccccc3n2)c1` ? 145 to 147 °C

Which melting point value belongs to `Fc1ccc2[nH]cc(C3=CCC4(CC3)OCCO4)c2c1` ? 153 to 155 °C

Please give the measured melting point for this molecule: COc1ccc(COC(=O)C(N)CCCCNC(=O)OC(C)(C)C)cc1 (stereo not given) 118 to 120 °C

Request the reported melting point associated with `CCc1cccc(C)c1C(=O)N[C@@H](Cc1ccc(-c2c(C)n(C)c(=O)n(C)c2=O)cc1)C(=O)O` 127 to 133 °C

---
Field request: melting point | item: Cc1ccc(-c2ccc3c(c2)C=C(C(=O)Nc2ccc(CS(=O)Cc4ccccc4)cc2)CCO3)cc1 (stereo not given) 208 to 209 °C

Could you tell me which melting point is on file for `O=C(NCc1ccccc1F)c1ccc2cnccc2n1` ? 110 to 111 °C

I am curious: what melting point value has been reported for CCC(COC)Nc1nc(C)nc(N2CCc3cc(OC)cc(Cl)c32)c1I (stereo not given) ? 150 to 152 °C

Given the entry Nc1cc(C2=NOC(c3cc(Cl)cc(Cl)c3)(C(F)(F)F)C2)ccc1C(=O)NCC(F)(F)F (stereo not given) , report its measured melting point. 78 to 79 °C

Endpoint output: melting point of `CCC(CC)C(=O)Nc1ccc2ncn3c(=O)c(C(=O)O)cnc3c2c1` . Value? 295 to 298 °C

Can you share its melting point? I mean this molecule: `CCOC(=O)c1nn(-c2ccc(C)cc2)cc1-c1ccccc1` 115 to 117 °C

* * *

Measured melting point accompanies every entry in the list below.

Requested field: melting point. Item: `COc1cc2cc(-c3c(F)cccc3F)sc2c(Cl)c1Cl` 173 to 174 °C

More entries:
// lookup melting point for CN(C)c1ccc(C2OC(C)(C)N=C2c2cccc(Cl)c2)cc1 (stereo not drawn) 96 to 97 °C

# lookup: melting point of `Cc1nc2cccc(OCC(C)(C)NC(=O)CC3CCOCC3)c2c(N)c1C(=O)O` 175 to 178 °C

* * *

Measurement label: melting point

See these solved cases before continuing.
Consider the molecule shown here: `O=S1(=O)c2cccc3cccc(c23)N1CCN1CCN(c2nsc3ccccc23)CC1` What is its recorded melting point? 162 °C

I have this molecule here, `CCN(CC)C(=O)c1c(C=O)ccnc1OC` , and I need its recorded melting point. < 50 °C

Which melting point value belongs to `C[C@H](NC(=O)c1c(CBr)c(-c2ccccc2)nc2ccccc12)C1CCCCC1` ? 182 to 184 °C

Record request: melting point value, item CCCCCCCCCCC=Cc1cnn(C(C(=O)Nc2c(OC)cc(OC)cc2OC)c2ccccc2)c1 (stereo not drawn) 82 to 85 °C

Requested field: melting point. Item: `CCCC[C@]1(CC)CS(=O)(=O)c2cc(OC)c(Br)cc2[C@@H](c2ccccc2)N1` 132 to 134 °C

Which value of melting point has been reported for `O=C(NCC(F)(F)F)C1(CCCCSc2nccs2)c2ccccc2-c2ccccc21` in the records? 143 to 144 °C

Look up melting point: `O=C(O)CCCc1cc2nc(Cl)ccc2n1S(=O)(=O)c1cccc(C(F)(F)F)c1` 188 °C

Shift focus to the following entry.
State the recorded melting point for this entry: CCCN(C(=O)OC(C)(C)C)C(CC(C)C)C(=O)NCC(=O)Oc1c(Cl)c(Cl)c(Cl)c(Cl)c1Cl (stereo not drawn) 151 to 153 °C

* * *

Reported melting point by item:

Known melting point results, listed for orientation:
Requested read-out: melting point. Entry: `O=C(Cn1nnnc1-c1ccsc1)OCCO` 103 to 106 °C

Entry under review: `CN1CCN(c2cc3c(cc2F)c(=O)c(C(=O)O)cn3NCC=O)CC1` . Reported melting point? 252 to 253 °C

// query melting point value for entry `O=c1c(Cl)c(Cl)cnn1-c1cc(C(F)(F)F)cc(C(F)(F)F)c1` 255 to 262 °C

Fill in the blank: the reported melting point of `Fc1ccc(COc2ncc(F)c(N=CN3CCCC3)n2)cc1` is ____. 102 to 103 °C

Quick check: melting point of COc1ccc(C#Cc2ccc(OC3CN4CCC3CC4)nn2)cc1 (stereo not drawn) ? 163 to 165 °C

Quick one: melting point of `COC(=O)c1ccc2nc3c(nc2c1)SC(C#N)=C(C#N)S3` ? 133 to 135 °C

Field request: melting point | item: COc1cccc2c1OC(CN1CC=C(c3c[nH]c4ccc(C#N)cc34)CC1)CO2 (stereo not drawn) 235 to 238 °C

Quick one: melting point of `Cc1ncc(-c2ccccc2)c(C(=O)N(C)Cc2cc(C(F)(F)F)cc(C(F)(F)F)c2)n1` ? 149 to 152 °C

More entries:
Consider the compound CN(c1cccc2cc(C3=NCC(CC(N)=O)S3)[nH]c12)S(=O)(=O)c1ccccn1 (stereo not drawn) and give its measured melting point. 149 to 150 °C

Param item = `Cc1cc(Oc2ccc(C(F)(F)F)cc2Cl)cc(C)c1N` ; retrieve measured melting point. 104 to 105 °C

Fill blank: measured melting point of the compound `O=C(O)CC1Cc2ccccc2C1` is ____. 85 to 88 °C

Returns the measured melting point for the input compound. Input: `O=C(Nc1cc(Cl)ccc1S(=O)(=O)c1ccccc1)N[C@@H](Cc1ccc(NC(=O)c2c(Cl)cncc2Cl)cc1)C(=O)O` 204 °C

Query (compound): `CCN(C(=O)c1ccccc1)C(=NC(=O)c1ccccc1)NCc1ccc(S(N)(=O)=O)cc1` ; field requested: melting point 70 to 80 °C

Given the entry `COc1ccc(C(=O)Nc2ccccc2)cc1NC(=S)Nc1ccc(C)cc1` , report its measured melting point. 156 to 158 °C

Would you mind telling me what melting point value was observed for `CC(C)Nc1c(-c2c(F)cc(F)cc2F)c(Cl)nc2nncn12` ? 268 to 273 °C

// returns reported melting point for input COC(=O)C(Oc1ccc(Cl)cc1)c1ccc(Oc2ccccc2)cc1 (stereo not drawn) 99 to 102 °C

Entry `CN1C(=O)N(CCN=C=O)C(C)(C)C1=O` has what melting point? 62 °C

// melting point lookup, key: `O=C(c1ccc(I)cc1)N1CCOCC1` 116 to 117 °C

Report melting point for `CCCOc1ccc(S(=O)(=O)N2CCN(CC)CC2)cc1-c1nc2cc(Cl)c([N+](=O)[O-])cc2c(=O)[nH]1` please. 239 to 241 °C

Given the entry `O=C(Cc1ccc(F)cc1)c1c(O)c2cccnc2n(-c2cccc(OC(F)(F)F)c2)c1=O` , report its measured melting point. 137 to 138 °C

Please look up its melting point: O=C1N(N2CCCCC2)c2ccccc2C1(O)Cc1ccncc1 (stereo not drawn) 156 to 158 °C

Could you tell me which melting point is on file for `NC(=O)c1ncn2c1CN=C(c1ccccc1F)c1cc(Cl)ccc1-2` ? 292 to 294 °C

Fill blank: measured melting point of the compound C=C(C)OC1CCC(=O)N1S(=O)(=O)c1ccccc1 (stereo not drawn) is ____. 54 to 56 °C

# input compound: `CCOC(=O)c1cn(C)c2c(=O)oc3ccccc3c2c1=O` ; wanted: its melting point 203 to 208 °C

Any idea what its melting point is? The compound is `CNS(=O)(=O)c1cc(C(=O)CCC(=O)OC)ccc1Cl` 112 to 114 °C

Returns the measured melting point for the input compound. Input: `COc1ccc(-c2nc(S(=O)(=O)c3nccs3)[nH]c2-c2ccc(OC)cc2)cc1` 219 °C

Requested field: melting point. Item: `COCCCNC(=O)c1cc(C(=O)OC)c(O)c2ncc(Cc3ccc(F)cc3)cc12` 166 to 167 °C

* * *

Items are presented alongside their recorded melting point.

Completed entries (count: 7):
// query melting point value for entry `CC(C)(C)c1ccc(C=O)cc1NC(=O)CC1c2ccccc2Oc2ccccc21` 172 to 174 °C

# lookup: melting point of `CN1c2cccc3cccc(c23)N(C)C1(C)C` 53 to 57 °C

Can you look up the measured melting point of `CC(C)(C)OC(=O)Nc1ccc(C#Cc2ccccc2Cl)cc1[N+](=O)[O-]` for me? 152 to 155 °C

# query: melting point of entry `Oc1ccc2c(c1)COc1c-2cc2ccc(O)cc2c1-c1ccccc1Cl` 220 to 222 °C

Value lookup for melting point; key = `CC1=NS(=O)(=O)N(C)C(Oc2ccc([N+](=O)[O-])cc2)=N1` 194 to 197 °C

What value of melting point has been recorded for this entry: `O=C(N=C1CCCN1Cc1ccccc1)Nc1cccc(Cl)c1` 91 to 93 °C

Suppose we examine the compound `Cc1cc2nc(Cl)cc(N)c2[nH]1` ; what melting point value has been reported? 270 °C

Okay, now this compound:
Please give the measured melting point for this compound: `CC(=O)c1ccc(Cl)c(C)c1F` 57 °C
